system: treatment-resistant patients; test: Other treatments of the Example 3 patients (history); conditions: Example 3 patients 2, 3, 5, 6, 7, before 7-keto DHEA
assay-readout: response to other treatment

- compound: "CN(C)CCC=C1c2ccccc2COc2ccccc21 [Doxepin]"
  response to other treatment: "partially responded"
- compound: "Nc1nnc(-c2cccc(Cl)c2Cl)c(N)n1"
  response to other treatment: "partially improved"
- compound: "CN[C@H]1CC[C@@H](c2ccc(Cl)c(Cl)c2)c2ccccc21"
  response to other treatment: "partially improved"
- compound: "COc1ccc(C(CN(C)C)C2(O)CCCCC2)cc1 (stereo not drawn)"
  response to other treatment: "partially responded"

May I ask what response to other treatment has been recorded for O=C1CCc2ccc(OCCCCN3CCN(c4cccc(Cl)c4Cl)CC3)cc2N1 ?
partially responded

From: patent US8124598B2
